SUBJECT_OF_TEST: MAGE-A11:PCF11 interaction (GST-MAGE-A11 and FAM-PCF11_4) (Homo sapiens, UniProt P43364)
Construct: GST-MAGE-A11 MHD (human MAGE-A11 MHD amino acid 218-429); made in house; host or cells: E. coli BL21(DE3)
Sequence (P43364 218-429): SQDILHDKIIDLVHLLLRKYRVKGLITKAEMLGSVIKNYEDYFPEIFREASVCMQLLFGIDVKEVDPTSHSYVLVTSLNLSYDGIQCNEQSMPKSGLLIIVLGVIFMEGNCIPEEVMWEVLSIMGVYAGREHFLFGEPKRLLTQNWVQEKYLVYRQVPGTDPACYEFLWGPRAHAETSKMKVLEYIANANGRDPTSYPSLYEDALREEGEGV
TEST_SUMMARY: TR-FRET primary / single point screen at 15 µM
Format: binding
CONDITION_PARAMETERS: single point TR-FRET screening of quinoline compounds against MAGE-A11:PCF11; 15 µM
Label rule, in plain words: percent inhibition (TR-FRET) of 30 and up is yes (1), under 30 is no (0).

CCCN(CCCNc1ccnc2cc(C(F)(F)F)ccc12)Cc1ccc2c(c1)OCO2 [SJ000361270] :: no (0)
CCCN(CCCNc1c2ccc(Cl)cc2nc2ccc(OC)cc12)Cc1ccccc1OC(F)(F)F [SJ000522961] :: no (0)
CCCN(CCCNc1c2ccc(Cl)cc2nc2ccc(OC)cc12)Cc1ccc2[nH]ccc2c1 [SJ000522732] :: yes (1)
COc1ccc(Oc2ccc3c(NCCCNCc4ccco4)ccnc3c2)cc1 [SJ000311218] :: yes (1)
CCCN(CCCNc1ccnc2cc(Cl)ccc12)Cc1cccc(F)c1 [SJ000522758] :: no (0)
CCCN(CCCCCC(=O)OC)CCCNc1ccnc2cc(C(F)(F)F)ccc12 [SJ000575191] :: no (0)

Next item in the queue.
// inclusive: percent inhibition (TR-FRET) at least 30? input: CCCN(CCCNc1c2ccc(Cl)cc2nc2ccc(OC)cc12)Cc1c(C)cc(C)cc1C [SJ000520934]
no (0)
